# Test system: SK-MEL-2 melanoma
# Experimental protocol: NCI-60 one-dose screen, 48 h (100 = growth as untreated, 0 = no growth, -100 = all killed)
# Condition description: 10 µM unless noted
About 83,000 compounds went through this panel and 20% of them were active in at least one assay; those are over-represented in the sample as a whole.
Assign y whenever growth does not fall below 30%; assign n whenever it does.

Input: Determine whether this molecule has growth no lower than 30%: N=c1ccn2c(n1)O[C@@H]1[C@@H](O)[C@H](CO)O[C@@H]12
Output: y

Input: Determine whether this molecule has growth no lower than 30%: OCc1nnn(-c2ccccc2)c1CO
Output: y

Input: Determine whether this molecule has growth no lower than 30%: COc1cccc(C2C(C#N)=C(N)Oc3cc(OC)ccc32)c1 (stereo not given)
Output: n

Input: Determine whether this molecule has growth no lower than 30%: COc1cc(/C=C/C(=O)Nc2ccc3c(c2)/C(=C\c2cccn2C)C(=O)N3)cc(OC)c1OC
Output: n

Input: Determine whether this molecule has growth no lower than 30%: O=C(CN1CCCCC1)Sc1nnc2sc3ccccc3n12
Output: y

Please turn your attention to the following entry.
Input: Determine whether this molecule has growth no lower than 30%: O=C(N1CCC(CN=c2cc3n(-c4ccc(Cl)cc4)c4ccccc4nc-3cc2Nc2ccc(Cl)cc2)CC1)N1CC1
Output: n

###

# Test system: HS 578T breast
# Experimental protocol: NCI-60 one-dose screen, 48 h
# Condition description: 10 µM unless noted
About 83,000 compounds went through this panel and 20% of them were active in at least one assay; those are over-represented in the sample as a whole. Activity calls are given as the source filed them. The calls were made as follows: active = growth percent below 10; inactive = the rest.
Your response should consist of one outcome taken from active, inactive

Input: Answer briefly: the call reported for O=C(Nc1ccc(Cl)cc1)c1cc2c(cc1O)[nH]c1ccccc12 in this assay.
Output: inactive

More entries:
Input: Answer briefly: the call reported for Nc1nc(SCc2ccccc2Cl)c(-c2ccccc2)c(SCc2ccccc2Cl)n1 in this assay.
Output: inactive

Input: Answer briefly: the call reported for CC[C@H](C)C(=O)O[C@H]1C[C@@H](C)C=C2C=C[C@H](C)[C@H](CC[C@@H]3C[C@@H](O)CC(=O)O3)[C@H]21 in this assay.
Output: inactive

Input: Answer briefly: the call reported for CCOC(=O)C1=C(COCCN)NC(C)=C(C(=O)OC)C1c1ccccc1Cl (stereo not drawn) in this assay.
Output: inactive

Input: Answer briefly: the call reported for CCOC(=O)c1c(NC(=O)C2CCCCC2C(=O)O)sc2c1CCCC2 (stereo not drawn) in this assay.
Output: inactive

###

# Test system: RPMI-8226 leukemia
# Experimental protocol: NCI-60 one-dose screen, 48 h
# Condition description: 10 µM unless noted
Compounds without any hit were thinned out: in the full panel of roughly 83,000, 20% have a hit. Active and inactive are the calls of the source. How the source made its calls: active means growth percent below 10; inactive means the rest.
Your response should consist of one outcome taken from active, inactive

Input: Answer briefly: the call reported for CCS(=O)(=O)OCCCl in this assay.
Output: inactive

###

# Test system: OVCAR-8 ovarian
# Experimental protocol: NCI-60 one-dose screen, 48 h (100 = growth as untreated, 0 = no growth, -100 = all killed)
# Condition description: 10 µM unless noted
Compounds without any hit were thinned out: in the full panel of roughly 83,000, 20% have a hit.
Observable: growth (%)
Answers are plain numbers, in %.

For each of the molecules below, state growth.
1. O=C1/C(=C/c2ccc([N+](=O)[O-])o2)Oc2ccc(Cl)cc21
2. NC(=O)c1ncn([C@@H]2O[C@H](CO)[C@@H](O)[C@H]2O)n1
3. Nc1nc(SCc2ccccc2Cl)c(-c2ccccc2)c(SCc2ccccc2Cl)n1

Output:
[-14.9, 72.7, 98.4]

Measured values drawn from PubChem BioAssay (NCI) for this set.
